Each item that follows carries a reported Papp at 18 hours, 50 µM.
- assay-protocol: PAMPA (parallel artificial membrane permeability assay)
- Format: in vitro ADME
- stated-conditions: PAMPA; membrane permeation rate (Pe); 50 mM MOPSO buffer pH 6.5 with 5.0% glycocholic acid, 37° C., 18 hours; read-out: iPAMPA Pe
Starred links: 1 amine or outer side, 2 acyl side, 3 side chain; linkers in the order of their positions; H or OH if unused. Positions of bridges follow the written chain, without caps; N, C: chain ends. Non-standard residues stand in square brackets, D forms with d. Residues, ends and D or L forms follow the SMILES beside them. *: point of attachment. NMeF = CN[C@@H](Cc1ccccc1)C(=O)O; NMeβAla = CN(CCC(=O)[*:2])[*:1]; NMeL = CN[C@@H](CC(C)C)C(=O)O; NMeA = CN[C@@H](C)C(=O)O; Piperidide = C1CCN(*)CC1; dNMeA = CN[C@H](C)C(=O)O; tBu = CC(C)(C)*

compound | u | Papp at 18 hours, 50 µM
CC(C)C[C@@H]1NC(=O)[C@H](CC(C)C)N(C)C(=O)[C@H](CC(C)C)N(C)C(=O)[C@@H](C)N(C)C(=O)C[C@@H](C(=O)N(C)[C@@H](Cc2ccccc2)C(=O)N[C@@H](C)C(=O)N2CCCCC2)NC(=O)[C@H](CC(C)C)N(C)C(=O)[C@H](Cc2ccccc2)NC(=O)[C@H](Cc2ccccc2)N(C)C(=O)[C@H](C)NC(=O)[C@H]([C@@H](C)O)NC1=O [DP-451] ([dNMeA][NMeL][NMeL]LTA[NMeF]F[NMeL]D[NMeF]A-Piperidide; lactam N-10) | ×10⁻⁶ cm/s | 35
CC(C)C[C@H]1C(=O)N[C@H](C(=O)N2CCCCC2)CC(=O)N(C)CCC(=O)N[C@@H]([C@@H](C)O)C(=O)N(C)[C@@H](C)C(=O)N[C@@H](COC(C)(C)C)C(=O)N(C)[C@@H](Cc2ccccc2)C(=O)N(C)[C@@H](CC(C)C)C(=O)N1C [DP-704] ([NMeβAla]T[NMeA]S(tBu)[NMeF][NMeL][NMeL]D-Piperidide; lactam N-8) | ×10⁻⁶ cm/s | 29
CC[C@H](C)[C@@H]1NC(=O)[C@H](Cc2ccccc2)N(C)C(=O)[C@H](CC(C)C)NC(=O)[C@H](CC(C)C)NC(=O)[C@H](Cc2ccccc2)NC(=O)[C@H](CC(C)C)NC(=O)[C@@H](C)NC(=O)C[C@@H](C(=O)N2CCCCC2)NC(=O)[C@H](Cc2ccccc2)NC(=O)[C@H]([C@@H](C)O)NC1=O [DP-115] ([dA]LFLL[NMeF]ITFD-Piperidide; lactam N-10) | ×10⁻⁶ cm/s | 0.45

----------
- assay-protocol: PAMPA (parallel artificial membrane permeability assay)
- Format: in vitro ADME
- stated-conditions: PAMPA; membrane permeation rate (Pe); 50 mM MOPSO buffer pH 6.5 with 5.0% glycocholic acid, 37° C., 18 hours; read-out: iPAMPA Pe
Positions of bridges follow the written chain, without caps; N, C: chain ends. Non-standard residues stand in square brackets, D forms with d. Residues, ends and D or L forms follow the SMILES beside them. *: point of attachment. Ala(4-thiazolyl) = N[C@@H](Cc1cscn1)C(=O)O; NMeF = CN[C@@H](Cc1ccccc1)C(=O)O; NMeL = CN[C@@H](CC(C)C)C(=O)O; NMeV = CN[C@H](C(=O)O)C(C)C; NMeA = CN[C@@H](C)C(=O)O; Piperidide = C1CCN(*)CC1; Sar = CNCC(=O)O; tBu = CC(C)(C)*
measurement-type: Papp at 18 hours, 50 µM (×10⁻⁶ cm/s)

compound | measurement-type | reading
CC(C)C[C@H]1C(=O)N(C)[C@@H](Cc2ccccc2)C(=O)N[C@H](C(=O)N2CCCCC2)CC(=O)N(C)[C@@H](C)C(=O)N[C@@H]([C@@H](C)O)C(=O)N(C)CC(=O)N[C@@H](COC(C)(C)C)C(=O)N(C)[C@@H](Cc2ccccc2)C(=O)N1C [DP-710] ([NMeA]T[Sar]S(tBu)[NMeF][NMeL][NMeF]D-Piperidide; lactam N-8) | Papp at 18 hours, 50 µM | 44
CC(C)C[C@@H]1NC(=O)[C@H](CC(C)C)N(C)C(=O)[C@H](C)N(C)C(=O)[C@@H](C(C)C)NC(=O)C[C@@H](C(=O)N2CCCCC2)NC(=O)[C@H](Cc2cscn2)NC(=O)[C@H](C)N(C)C(=O)[C@H](C)N(C)C(=O)[C@H](C)N(C)C(=O)[C@H](Cc2ccccc2)NC(=O)[C@H](Cc2ccccc2)N(C)C1=O [DP-624] ([dV][NMeA][NMeL]L[NMeF]F[NMeA][NMeA][NMeA][Ala(4-thiazolyl)]D-Piperidide; lactam N-11) | Papp at 18 hours, 50 µM | 24
CC(C)C[C@H]1C(=O)N(C)[C@@H](C(C)C)C(=O)N[C@@H](Cc2ccccc2)C(=O)N[C@H](C(=O)N(C)[C@@H](Cc2ccccc2)C(=O)N(C)[C@@H](Cc2ccccc2)C(=O)N[C@@H](C)C(=O)N2CCCCC2)CC(=O)N[C@H](C)C(=O)N[C@@H](C(C)C)C(=O)N(C)[C@@H](CC(C)C)C(=O)N[C@@H]([C@@H](C)O)C(=O)N(C)[C@@H](Cc2ccccc2)C(=O)NCC(=O)N1C [DP-501] ([dA]V[NMeL]T[NMeF]G[NMeL][NMeV]FD[NMeF][NMeF]A-Piperidide; lactam N-10) | Papp at 18 hours, 50 µM | 0.23

----------
- assay-protocol: Metabolic stability in human hepatic microsome
- Type: in vitro ADME
- stated-conditions: microsomes, pH 7.4; human hepatic microsome, NADPH(+); read-out: CL NADPH(+)
Starred links: 1 amine or outer side, 2 acyl side, 3 side chain; linkers in the order of their positions; H or OH if unused. Positions of bridges follow the written chain, without caps; N, C: chain ends. Non-standard residues stand in square brackets, D forms with d. Residues, ends and D or L forms follow the SMILES beside them. *: point of attachment. Tyr(3-F) = N[C@@H](Cc1ccc(O)c(F)c1)C(=O)O; X2 = O=C(C[C@H](N[*:1])C(F)(F)F)[*:2]; NMeF = CN[C@@H](Cc1ccccc1)C(=O)O; NMeL = CN[C@@H](CC(C)C)C(=O)O; NMeS = CN[C@@H](CO)C(=O)O; NMeA = CN[C@@H](C)C(=O)O; Piperidide = C1CCN(*)CC1; Abu = CC[C@H](N)C(=O)O; Sar = CNCC(=O)O

compound | microsomal CLint at 1 uM / µL/min/mg
CC(C)C[C@@H]1NC(=O)[C@H](CC(C)C)N(C)C(=O)[C@H](C)N(C)C(=O)[C@H](Cc2ccc(O)c(F)c2)NC(=O)[C@H](Cc2ccccc2)N(C)C(=O)[C@H]([C@@H](C)O)NC(=O)[C@H](CC(C)C)N(C)C(=O)[C@H](Cc2ccccc2)NC(=O)[C@H](C)NC(=O)C[C@@H](C(=O)N(C)[C@@H](Cc2ccccc2)C(=O)N[C@@H](C)C(=O)N2CCCCC2)NC1=O [DP-606] (AF[NMeL]T[NMeF][Tyr(3-F)][NMeA][NMeL]LD[NMeF]A-Piperidide; lactam N-10) | 70
CC[C@@H]1NC(=O)[C@H](CO)N(C)C(=O)[C@H](CC(C)C)N(C)C(=O)[C@H](CC(C)C)N(C)C(=O)[C@H](CC(C)C)N(C)C(=O)[C@@H](C)NC(=O)[C@H](C)NC(=O)[C@H](CC(C)C)N(C)C(=O)[C@H](CC)NC(=O)[C@H](CC(C)C)N(C)C(=O)C[C@@H](C(F)(F)F)NC1=O [DP-655] (cyclo(A[dA][NMeL][NMeL][NMeL][NMeS][Abu][X2][NMeL][Abu][NMeL])) | 62
CC(C)C[C@H]1C(=O)N(C)[C@@H](CC(C)C)C(=O)N(C)CC(=O)N(C)[C@@H](Cc2ccccc2)C(=O)N[C@@H](C)C(=O)N(C)[C@@H](Cc2ccccc2)C(=O)N(C)[C@@H](CC(C)C)C(=O)N[C@@H]([C@@H](C)O)C(=O)N[C@H](C(=O)N2CCCCC2)CC(=O)N[C@H](C(C)C)C(=O)N(C)[C@@H](C)C(=O)N1C [DP-151] ([dV][NMeA][NMeL][NMeL][Sar][NMeF]A[NMeF][NMeL]TD-Piperidide; lactam N-11) | 30

----------
- assay-protocol: PAMPA (parallel artificial membrane permeability assay)
- Type: in vitro ADME
- stated-conditions: PAMPA; membrane permeation rate (Pe); 50 mM MOPSO buffer pH 6.5 with 5.0% glycocholic acid, 37° C., 18 hours; read-out: iPAMPA Pe
Starred links: 1 amine or outer side, 2 acyl side, 3 side chain; linkers in the order of their positions; H or OH if unused. Positions of bridges follow the written chain, without caps; N, C: chain ends. Non-standard residues stand in square brackets, D forms with d. Residues, ends and D or L forms follow the SMILES beside them. *: point of attachment. NMeF = CN[C@@H](Cc1ccccc1)C(=O)O; NMeGABA = CN(CCCC(=O)[*:2])[*:1]; NMeβAla = CN(CCC(=O)[*:2])[*:1]; NMeL = CN[C@@H](CC(C)C)C(=O)O; NMeV = CN[C@H](C(=O)O)C(C)C; Piperidide = C1CCN(*)CC1; dNMeA = CN[C@H](C)C(=O)O; β3hA = C[C@H](N)CC(=O)O; Sar = CNCC(=O)O; tBu = CC(C)(C)*
measurement-type: Papp at 18 hours, 50 µM

compound | reading
CC(C)C[C@H]1C(=O)N(C)[C@@H](CC(C)C)C(=O)N[C@@H]([C@@H](C)O)C(=O)N(C)[C@@H](Cc2ccccc2)C(=O)NCC(=O)N(C)[C@@H](C(C)C)C(=O)N[C@@H](Cc2ccccc2)C(=O)N[C@@H](C)CC(=O)N(C)CCC(=O)N[C@@H](COC(C)(C)C)C(=O)N1C [DP-777] (cyclo(F[β3hA][NMeβAla]S(tBu)[NMeL][NMeL]T[NMeF]G[NMeV])) | 39 ×10⁻⁶ cm/s
CC(C)C[C@H]1C(=O)N[C@H](C(=O)N2CCCCC2)CC(=O)N(C)CCCC(=O)N(C)[C@@H](Cc2ccccc2)C(=O)N[C@@H]([C@@H](C)O)C(=O)N(C)CC(=O)N[C@@H](COC(C)(C)C)C(=O)N1C [DP-535] ([NMeGABA][NMeF]T[Sar]S(tBu)[NMeL]D-Piperidide; lactam N-7) | 21 ×10⁻⁶ cm/s
CC[C@H](C)[C@@H]1NC(=O)[C@H](CC(C)C)N(C)C(=O)CN(C)C(=O)[C@H]([C@@H](C)O)NC(=O)[C@@H](C)N(C)C(=O)C[C@@H](C(=O)N2CCCCC2)NC(=O)[C@H](CC(C)C)N(C)C(=O)[C@H](Cc2ccccc2)N(C)C(=O)[C@H](CC(C)C)N(C)C1=O [DP-512] ([dNMeA]T[Sar][NMeL]I[NMeL][NMeF][NMeL]D-Piperidide; lactam N-9) | 18 ×10⁻⁶ cm/s
